- assay-name: Plasma protein binding rate test, equilibrium dialysis, CD-1 mouse plasma
- Assay type: in vitro ADME
- test-conditions: mouse plasma (M), equilibrium dialysis 37° C. 4 hours, read-out: plasma protein binding PPB bound (%) (converted)
- Experimental: Plasma Protein Binding Rate Test of the Compound The protein binding rate of the test compound in CD-1 mice, SD rats, and human plasma was evaluated by equilibrium dialysis. The test compound was diluted into the plasma of the above three species respectively to prepare a sample with a final concentration of 2 μM. […] The concentration of the test compound and warfarin in the plasma and the buffer was determined by LC-MS/MS.
Here, each record is paired with measured fraction unbound at 4 h, 2 μM data.
// return just the number, without any unit appended

Record excerpt, results attached:
COc1cc(N2CCN(C3=Nc4cscc4[C@H](CC(=O)O)N3c3cc(C(F)(F)F)ccc3OC)C[C@H]2C)ccn1 (single isomer, unassigned) :: 0.011
COc1ccnc(N2CCN(C3=Nc4c(csc4F)[C@H](CC(=O)O)N3c3cc(C(F)(F)F)ccc3OC)C[C@H]2C)c1 (single isomer, unassigned) :: 0.001

Now turn to the next compound.
fraction unbound at 4 h, 2 μM measured on COc1cc(N2CCN(C3=Nc4ccsc4[C@H](CC(=O)O)N3c3cc(C(F)(F)F)ccc3OC)CC2)ccn1 (single isomer, unassigned) = 0.055

----------
- System: US3-6-EGFP-HCMV-AD169 viruses
- assay-name: Fluorescence decay assay against human cytomegalovirus
- Type: cell-based, human cytomegalovirus (HCMV)
- test-conditions: Human betaherpesvirus 5, AD169, MRC5, 240 h
Readings of pEC50 for the listed compounds
Note: pEC50 values are expressed as the negative base-10 logarithm of concentration in M.

Some compounds with known pEC50 results, for comparison:
COc1cc(N2CCN(C3=Nc4c(csc4F)[C@H](CC(=O)O)N3c3cc(C(F)(F)F)ccc3OC)C[C@H]2C)ncn1 (single isomer, unassigned) [WX-149] :: 9.17
COc1ccnc(N2CCN(C3=Nc4ccsc4[C@@H](CC(=O)O)N3c3cc(C(F)(F)F)ccc3OC)C[C@H]2C)c1 (single isomer, unassigned) [WX-140] :: 6.84

Entry COc1cc(N2CCN(C3=Nc4ccsc4[C@H](CC(=O)O)N3c3cc(C(F)(F)F)ccc3OC)CC2)ccn1 (single isomer, unassigned) [WX-109] — recorded pEC50 = 8.40

----------
- Test system: US3-6-EGFP-HCMV-AD169 viruses
- assay-name: Fluorescence decay assay against human cytomegalovirus
- Format: cell-based, human cytomegalovirus (HCMV)
- test-conditions: Human betaherpesvirus 5, AD169, MRC5, 240 h
pEC50: −log10 of the molar value.
readout-name: pEC50

Examples with answers:
COc1cc(N2[C@H](C)CN(C3=Nc4ccsc4[C@@H](CC(=O)O)N3c3cc(C(F)(F)F)ccc3OC)C[C@H]2C)ccn1 (single isomer, unassigned) :: < 8.00
COc1cncc(N2CCN(C3=Nc4ccsc4[C@@H](CC(=O)O)N3c3cc(C(F)(F)F)ccc3OC)C[C@H]2C)c1 (single isomer, unassigned) :: < 6.00
COc1cc(N2CCN(C3=Nc4ccsc4[C@@H](CC(=O)O)N3c3cc(C(F)(F)F)ccc3OC)C[C@H]2C)ccc1F (single isomer, unassigned) :: < 8.00

Now for the molecule whose pEC50 we want.
Record COc1cccc(N2CCN(C3=Nc4cscc4[C@@H](CC(=O)O)N3c3cc(C(F)(F)F)ccc3OC)C[C@H]2C)c1 (single isomer, unassigned) . Reported pEC50: < 8.00
